Listing: log10(Relative cAMP EC50, nM (0.1% casein)) of selected binders
- System tested: human glucagon receptor (human) (UniProt P47871)
- Sequence (P47871 26-477): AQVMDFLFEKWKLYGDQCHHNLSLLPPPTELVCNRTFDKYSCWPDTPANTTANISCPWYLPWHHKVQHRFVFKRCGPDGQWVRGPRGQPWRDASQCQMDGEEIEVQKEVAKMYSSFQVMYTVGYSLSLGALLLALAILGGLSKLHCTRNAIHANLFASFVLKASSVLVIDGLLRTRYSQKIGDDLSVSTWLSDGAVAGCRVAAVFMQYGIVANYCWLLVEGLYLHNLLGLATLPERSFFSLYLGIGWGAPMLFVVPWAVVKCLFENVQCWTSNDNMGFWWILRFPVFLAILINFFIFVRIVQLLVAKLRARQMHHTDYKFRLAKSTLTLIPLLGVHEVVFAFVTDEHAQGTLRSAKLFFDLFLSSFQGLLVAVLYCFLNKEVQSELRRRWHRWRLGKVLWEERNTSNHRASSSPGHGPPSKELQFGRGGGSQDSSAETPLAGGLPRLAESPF
- Method notes: cell-based or functional assay
Starred links: 1 amine or outer side, 2 acyl side, 3 side chain; linkers in the order of their positions; H or OH if unused. Non-standard residues stand in square brackets, D forms with d. Groups on a side chain read outwards from the residue. No end group written: not given here. *: point of attachment. C18 diacid = O=C(O)CCCCCCCCCCCCCCCCC(=O)*; γGlu = O=C(O)[C@H](CCC(=O)[*:2])N[*:1]; 4Pal = N[C@@H](Cc1ccncc1)C(=O)O; αMeL = CC(C)C[C@](C)(N)C(=O)O; Dab = NCC[C@H](N)C(=O)O; AEEA = NCCOCCOCC(=O)O; Aib = CC(C)(N)C(=O)O
Value type: log10(Relative cAMP EC50, nM (0.1% casein)) (log10 of the value in nM)

{"Binder": "YXQGTFTSDFSXXLDKKAQXAFIEYLLEAGPSSGEPPPSGQ (Aib, Orn, alpha-methyl-Leu, D-Ala, lipidated Lys, amide; synthetic construct; SITE 2: note = 2-Aminoisobutyric Acid; SITE 12: note = L-ornithine; SITE 13: note = alpha-methyl-leucine; SITE 17: note = Lysine is chemically modified through conjugation of the epsilon-amino group of the Lysine side chain with (2-[2-(2-Amino-ethoxy)-ethoxy]-acetyl)2-(gamma-Glu)) [Example 157]", "Observed": 0.62}
{"Binder": "YXQGTXTSDXXIXLDXKAQXNFIEXLQEGGPSSGEPPPE (synthetic construct; SITE 2: note = 2-Aminoisobutyric Acid; SITE 6: note = alpha-methyl-2-fluoro-L-phenylalanine; SITE 10: note = 3-(4-Pyridyl)-L-alanine; SITE 11: note = alpha-methyl-L-serine; SITE 13: note = alpha-methyl-leucine; SITE 16: note = L-ornithine; SITE 17: note = Lysine is chemically mo) [Example 450]", "Observed": 0.68}
{"Binder": "HXQGTXTSDXXIXLDXKAQXNFIEYLLEGGPSSGEPPPE (synthetic construct; SITE 2: note = 2-Aminoisobutyric Acid; SITE 6: note = alpha-methyl-2-fluoro-L-phenylalanine; SITE 10: note = 3-(4-Pyridyl)-L-alanine; SITE 11: note = alpha-methyl-L-serine; SITE 13: note = alpha-methyl-leucine; SITE 16: note = L-ornithine; SITE 17: note = Lysine is chemically mo) [Example 478]", "Observed": 0.91}
{"Binder": "YXQGTXTSDXSIXLDKKAQXAFIEYLEEGGPSSGEPPPE (synthetic construct; SITE 2: note = 2-Aminoisobutyric Acid; SITE 6: note = alpha-methyl-2-fluoro-L-phenylalanine; SITE 10: note = 3-(4-Pyridyl)-L-alanine; SITE 13: note = alpha-methyl-leucine; SITE 17: note = Lysine is chemically modified through conjugation of the epsilon-amino group of the Lysine) [Example 487]", "Observed": 0.73}
{"Binder": "YXQGTXTSDXXIXLDXKAQXXFIEYLIEGGPSSGEPPPEEG (synthetic construct; SITE 2: note = 2-Aminoisobutyric Acid; SITE 6: note = alpha-methyl-2-fluoro-L-phenylalanine; SITE 10: note = 3-(4-Pyridyl)-L-alanine; SITE 11: note = alpha-methyl-L-serine; SITE 13: note = alpha-methyl-leucine; SITE 16: note = L-ornithine; SITE 17: note = Lysine is chemically mo) [Example 476]", "Observed": 0.13}
{"Binder": "YXQGTXTSDXXIXLDXKAQXNFIEYLIEGGPSSGEPPPE (synthetic construct; SITE 2: note = 2-Aminoisobutyric Acid; SITE 6: note = alpha-methyl-2-fluoro-L-phenylalanine; SITE 10: note = 3-(4-Pyridyl)-L-alanine; SITE 11: note = alpha-methyl-L-serine; SITE 13: note = alpha-methyl-leucine; SITE 16: note = L-ornithine; SITE 17: note = Lysine is chemically mo) [Example 449]", "Observed": 1.06}
{"Binder": "YXQGTXTSDXXIXLDXKAQXTFIEXLIEGGPSSGEPPPE (synthetic construct; SITE 2: note = 2-Aminoisobutyric Acid; SITE 6: note = alpha-methyl-2-fluoro-L-phenylalanine; SITE 10: note = 3-(4-Pyridyl)-L-alanine; SITE 11: note = alpha-methyl-L-serine; SITE 13: note = alpha-methyl-leucine; SITE 16: note = L-ornithine; SITE 17: note = Lysine is chemically mo) [Example 457]", "Observed": 0.46}
{"Binder": "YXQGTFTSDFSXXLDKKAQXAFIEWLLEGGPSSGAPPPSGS (Aib, Orn, αMeL; acylated K; C-terminal amide; synthetic construct; SITE 2: note = 2-Aminoisobutyric Acid; SITE 12: note = L-ornithine; SITE 13: note = alpha-methyl-leucine; SITE 17: note = Lysine is chemically modified through conjugation of the epsilon-amino group of the Lysine side chain with (2-[2-(2-Amino-ethoxy)-ethoxy]-acetyl)-(gamma-Glu)) [Example 168]", "Observed": 0.74}
{"Binder": "YXQGTFTSDFSXXLDKKAQXAFIEYLLEXGHSSGAPPPSGT (Aib, Orn, alpha-methyl-Leu, lipidated Lys, C-terminal amide; synthetic construct; SITE 2: note = 2-Aminoisobutyric Acid; SITE 12: note = L-ornithine; SITE 13: note = alpha-methyl-leucine; SITE 17: note = Lysine is chemically modified through conjugation of the epsilon-amino group of the Lysine side chain with (2-[2-(2-Amino-ethoxy)-ethoxy]-acetyl)2-(gamma-Glu)) [Example 182]", "Observed": 0.73}
{"Binder": "YXQGTXTSDXXIXLDXKAQXNFIEXLIEGGPSSGEPEPSEG (synthetic construct; SITE 2: note = 2-Aminoisobutyric Acid; SITE 6: note = alpha-methyl-2-fluoro-L-phenylalanine; SITE 10: note = 3-(4-Pyridyl)-L-alanine; SITE 11: note = alpha-methyl-L-serine; SITE 13: note = alpha-methyl-leucine; SITE 16: note = L-ornithine; SITE 17: note = Lysine is chemically mo) [Example 473]", "Observed": 0.43}
{"Binder": "YXQGTXTSDXSIXLDXKAQXXFIEXLIEGGPSSGEPPPEEG (synthetic construct; SITE 2: note = 2-Aminoisobutyric Acid; SITE 6: note = alpha-methyl-2-fluoro-L-phenylalanine; SITE 10: note = 3-(4-Pyridyl)-L-alanine; SITE 13: note = alpha-methyl-leucine; SITE 16: note = L-ornithine; SITE 17: note = Lysine is chemically modified through conjugation of the epsil) [Example 475]", "Observed": 0.35}
{"Binder": "YXQGTFTSDFSXXLDKKAQXAFIEYLLEXGXSSGAPPPSGE (Aib, Orn, αMeL, 4Pal; lipidated Lys; C-terminal amide; synthetic construct; SITE 2: note = 2-Aminoisobutyric Acid; SITE 12: note = L-ornithine; SITE 13: note = alpha-methyl-leucine; SITE 17: note = Lysine is chemically modified through conjugation of the epsilon-amino group of the Lysine side chain with (2-[2-(2-Amino-ethoxy)-ethoxy]-acetyl)2-(gamma-Glu)) [Example 189]", "Observed": 0.80}
{"Binder": "YXQGTXTSDXXIXLDXKAQXNFIEYLIEGGPSSGEPPPEEG (synthetic construct; SITE 2: note = 2-Aminoisobutyric Acid; SITE 6: note = alpha-methyl-2-fluoro-L-phenylalanine; SITE 10: note = 3-(4-Pyridyl)-L-alanine; SITE 11: note = alpha-methyl-L-serine; SITE 13: note = alpha-methyl-leucine; SITE 16: note = L-ornithine; SITE 17: note = Lysine is chemically mo) [Example 482]", "Observed": 0.15}
{"Binder": "YXQGTFTSDFSXXLDKKAQXAFIEWLLEGGHSSGAPPPSGS (Lys acylated with AEEA-γGlu-C18 diacid; non-natural residues; C-amide; synthetic construct; SITE 2: note = 2-Aminoisobutyric Acid; SITE 12: note = L-ornithine; SITE 13: note = alpha-methyl-leucine; SITE 17: note = Lysine is chemically modified through conjugation of the epsilon-amino group of the Lysine side chain with (2-[2-(2-Amino-ethoxy)-ethoxy]-acetyl)-(gamma-Glu)) [Example 170]", "Observed": 0.72}
{"Binder": "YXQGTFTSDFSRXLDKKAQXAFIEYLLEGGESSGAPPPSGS (Aib, αMeL; lysine acylated C18 diacid; C-terminal amide; synthetic construct; SITE 2: note = 2-Aminoisobutyric Acid; SITE 13: note = alpha-methyl-leucine; SITE 17: note = Lysine is chemically modified through conjugation of the epsilon-amino group of the Lysine side chain with (2-[2-(2-Amino-ethoxy)-ethoxy]-acetyl)-(gamma-Glu)-CO-(CH2) 16-CO2H; SITE 20: n) [Example 148]", "Observed": 0.59}
{"Binder": "YXQGTXTSDXXIXLDXKAQXNFIEYLIEGGPSSGEPPPEGE (synthetic construct; SITE 2: note = 2-Aminoisobutyric Acid; SITE 6: note = alpha-methyl-2-fluoro-L-phenylalanine; SITE 10: note = 3-(4-Pyridyl)-L-alanine; SITE 11: note = alpha-methyl-L-serine; SITE 13: note = alpha-methyl-leucine; SITE 16: note = L-ornithine; SITE 17: note = Lysine is chemically mo) [Example 483]", "Observed": 0.25}
{"Binder": "YXQGTFTSDFSXXLDKKAQXAFIEYLLEGGESSGAPPPGGS (non-natural residues, lysine acylation, C-terminal amide; synthetic construct; SITE 2: note = 2-Aminoisobutyric Acid; SITE 12: note = L-ornithine; SITE 13: note = alpha-methyl-leucine; SITE 17: note = Lysine is chemically modified through conjugation of the epsilon-amino group of the Lysine side chain with (2-[2-(2-Amino-ethoxy)-ethoxy]-acetyl)-(gamma-Glu)) [Example 161]", "Observed": 0.68}
{"Binder": "YXQGTFTSDXSRXLDKKAQXAFIEYLIEXGESSGAPPPSGS (Aib, 4Pal, αMeL; lipidated Lys; C-terminal amide; synthetic construct; SITE 2: note = 2-Aminoisobutyric Acid; SITE 10: note = 3-(4-Pyridyl)-L-alanine; SITE 13: note = alpha-methyl-leucine; SITE 17: note = Lysine is chemically modified through conjugation of the epsilon-amino group of the Lysine side chain with (2-[2-(2-Amino-ethoxy)-ethoxy]-acetyl)) [Example 187]", "Observed": 1.17}
{"Binder": "YXQGTFTSDFSXXLDKKAQXAFIEYLLAGGPSSGEPPPSGS (Aib, Orn, αMeL; acylated Lys (AEEA-γGlu2-C18 diacid); C-terminal amide; synthetic construct; SITE 2: note = 2-Aminoisobutyric Acid; SITE 12: note = L-ornithine; SITE 13: note = alpha-methyl-leucine; SITE 17: note = Lysine is chemically modified through conjugation of the epsilon-amino group of the Lysine side chain with (2-[2-(2-Amino-ethoxy)-ethoxy]-acetyl)-(gamma-Glu)) [Example 153]", "Observed": 1.17}
{"Binder": "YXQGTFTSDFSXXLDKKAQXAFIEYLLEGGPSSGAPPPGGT (Lys acylated AEEA-γGlu-C18 diacid; non-natural residues; C-terminal amide; synthetic construct; SITE 2: note = 2-Aminoisobutyric Acid; SITE 12: note = L-ornithine; SITE 13: note = …; SITE 17: note = Lysine is chemically modified through conjugation of the epsilon-amino group of the Lysine side chain with (2-[2-(2-Amino-ethoxy)-ethoxy]-acetyl)-(gamma-Glu)) [Example 158]", "Observed": 0.57}
{"Binder": "YXQGTFTSDFSXXLDKKAQXAFIEWLLEGGTSSGAPPPSGS (Aib, Orn, αMeL; AEEA-γGlu-C18 diacid Lys; C-term amide; synthetic construct; SITE 2: note = 2-Aminoisobutyric Acid; SITE 12: note = L-ornithine; SITE 13: note = alpha-methyl-leucine; SITE 17: note = Lysine is chemically modified through conjugation of the epsilon-amino group of the Lysine side chain with (2-[2-(2-Amino-ethoxy)-ethoxy]-acetyl)-(gamma-Glu)) [Example 176]", "Observed": 0.61}
{"Binder": "YXQGTFTSDFSXXLDKKAQXAFIEYLLEGGPSSGAPPPEGT (Aib, Orn, αMeL, acylated Lys, amide; synthetic construct; SITE 2: note = 2-Aminoisobutyric Acid; SITE 12: note = L-ornithine; SITE 13: note = alpha-methyl-leucine; SITE 17: note = Lysine is chemically modified through conjugation of the epsilon-amino group of the Lysine side chain with (2-[2-(2-Amino-ethoxy)-ethoxy]-acetyl)-(gamma-Glu)) [Example 160]", "Observed": 0.64}
{"Binder": "YXQGTFTSDFSXXLDKKAQXAFIEXLLEGGPSSGAPPPGGS (synthetic construct; SITE 2: note = 2-Aminoisobutyric Acid; SITE 12: note = L-ornithine; SITE 13: note = alpha-methyl-leucine; SITE 17: note = Lysine is chemically modified through conjugation of the epsilon-amino group of the Lysine side chain with (2-[2-(2-Amino-ethoxy)-ethoxy]-acetyl)-(gamma-Glu)) [Example 496]", "Observed": 0.92}
{"Binder": "Y[Aib]QGTFTSD[4Pal]S[Dab][αMeL]LDKK([AEEA-γGlu-C18 diacid])AQ[Aib]AFIEYLIE[Aib]GESSGAPPPSGS-NH2 [Example 188]", "Observed": 1.03}
